Test system: adult male Wistar rats
Method description: SCORE-2000 sleep-wakefulness, locomotor activity and body temperature monitoring
Format: in vivo, rat
Condition label: dose 3 mg/kg oral at CT-18
Returns one of MET or NOT MET; MET when NREM is >= 30 min.

Say whether CC(C)(CN1CCC(=C2c3ccc(Cl)cc3COc3ccccc32)CC1)C(=O)O [Compound 51a] shows NREM of 30 min or more. MET

Entry CC(C)(CN1CCC(=C2c3ccc(F)cc3COc3ccccc32)CC1)C(=O)O [Compound 49a] : is its NREM no less than 30 min? MET

Say whether COc1ccc2c(c1)C(=C1CCN(CC(C)(C)C(=O)O)CC1)c1ccccc1CO2 [Compound 52a] shows NREM of 30 min or more. NOT MET

Record CC(C)(CN1CCC(=C2c3ccc(F)cc3COc3ccc(O)cc32)CC1)C(=O)O [Compound 58a] ; criterion: NREM no lower than 30 min. Met? NOT MET

Quick check, NREM >= 30 min? CC(C)(CN1CCC(=C2c3ccccc3COc3ccccc32)CC1)C(=O)O [Compound 69a] MET

hey, is NREM for this one >= 30 min? CC(C)(CN1CCC(=C2c3ccc(F)cc3COc3ccc(F)cc32)CC1)C(=O)O [Compound 48a] MET

Does NREM meet or surpass 30 min for O=C(O)C1(CN2CCC(=C3c4ccc(Cl)cc4COc4ccccc43)CC2)CC1 [Compound 51b] ? MET

Can O=C(O)C1(CCN2CCC(=C3c4ccc(F)cc4COc4ccccc43)CC2)CC1 [Compound 61b] be said to have NREM at or above 30 min? NOT MET

====

Exercise: for every item that follows, state its recorded pKi.
Experimental system: Dopamine, D1 (UniProt P21728)
Method description: Dopamine, D1 (human recombinant) binding assay
pKi: −log10 of the molar value.

Record lookup: for Dopamine, D1 (UniProt P21728), what pKi belongs to `COc1ccc2c(c1)COc1ccc(F)cc1C2=C1CCN(CCCC(=O)O)CC1` ? < 5.00

Query for Dopamine, D1 (UniProt P21728): what pKi does the record show for `COc1ccc2c(c1)COc1ccc(F)cc1C2=C1CCN(CC2(C(=O)O)CC2)CC1` ? < 5.00

Param readout = pKi; param system = Dopamine, D1 (UniProt P21728); param query = `COc1ccc2c(c1)COc1ccc(F)cc1C2=C1CCN(CCC(=O)O)CC1` ; response: value < 5.00

====

Please go through the items and note down their pKi.
Experimental system: 5HT2a (rat) (Rattus norvegicus)
Sequence (P14842 whole entry): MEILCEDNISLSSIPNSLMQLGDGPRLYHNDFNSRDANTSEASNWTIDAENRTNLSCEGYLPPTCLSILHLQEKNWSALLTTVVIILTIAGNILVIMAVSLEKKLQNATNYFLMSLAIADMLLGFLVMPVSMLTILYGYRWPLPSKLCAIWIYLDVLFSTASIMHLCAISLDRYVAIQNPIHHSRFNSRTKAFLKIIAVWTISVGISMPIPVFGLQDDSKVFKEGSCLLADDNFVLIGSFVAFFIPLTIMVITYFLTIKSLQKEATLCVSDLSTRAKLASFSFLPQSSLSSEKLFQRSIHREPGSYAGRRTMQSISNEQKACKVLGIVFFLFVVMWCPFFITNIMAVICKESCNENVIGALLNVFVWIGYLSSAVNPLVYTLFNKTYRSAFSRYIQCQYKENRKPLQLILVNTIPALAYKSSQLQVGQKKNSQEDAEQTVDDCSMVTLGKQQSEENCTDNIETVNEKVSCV
Conceptually, pKi converts a concentration in mol/L into minus its log10.

Value lookup for pKi; key = COc1ccc2c(c1)COc1ccc(F)cc1C2=C1CCN(CC2(C(=O)O)CC2)CC1 [Compound 10519] 7.25

// lookup pKi for COc1ccc2c(c1)COc1ccc(F)cc1C2=C1CCN(CCC(=O)O)CC1 [Compound 10518] 6.71

Given the compound COc1ccc2c(c1)COc1ccc(F)cc1C2=C1CCN(CCCC(=O)O)CC1 [Compound 10520] , what is its reported pKi? 7.25

====

Readout label: IC50
Phrase the answer as number then unit, nothing more needed.

Record lookup: for H1 histamine receptor (Bos taurus, UniProt P30546), what IC50 belongs to CC(CC(=O)O)N1CCC(=C2c3ccc(F)cc3COc3ccccc32)CC1 (stereo not shown) ? 0.0675 µM
